Tested on: MCF-7 cells
Assay: Viability assay using MTT
Type: cell-based
Conditions: Homo sapiens, MCF7, 24 h, compounds 0.1 to 100 μM, unit inferred, read-out: MCF-7 (IC50), Viability Assays
pIC50: −log10 of the molar value.
parameter: pIC50

Worked cases, answers included:
# given.smiles, system.under.test, pIC50
rows = [
    ("CCCCCCCCCCCCC/C=C/[C@@H](O)[C@H](CO)NCc1ccccc1", "MCF-7 cells", 5.20),
    ("CCCCCCCCCCCCC/C=C/[C@@H](O)[C@H](CO)NC(=O)C(C)(C)C", "MCF-7 cells", 4.87),
]

a. CCCCCCCCCCCCC/C=C/[C@@H](O)[C@H](CO)/N=C/c1ccccc1
b. CCCCCCCCCCCCC/C=C/[C@@H](O)[C@H](CO)NC(=O)C1CCCCC1
Q: Sorting ascending by pIC50, which comes first: a or b ? Identify your pick by its label.
Ans: b
(b: 4.65, a: 5.05)
